assay: JHH-DIPG-1 glioma cell viability, MIPE5.0 library, CellTiter-Glo luminescence, qHTS (AID 1347067); details: JHH-DIPG-1 glioma viability, CellTiter-Glo ATP luminescence;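 further: cells exposed to compound for 48 hours before readout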
Inconclusive results are not listed. Calls of active or inactive are those of the source. Cut-off not given; nearly all actives show AC50 up to about 26 µM.
Give one outcome, nothing more. List: yes for active, no for inactive

Past entries and their recorded results:
compound	qualitative_label
C[C@H]1O[C@H](O[C@H]2[C@H](O)[C@@H](O)[C@@H](O[C@H]3[C@H](O)[C@@H](O)C(O)O[C@@H]3CO)O[C@@H]2CO)[C@H](O)[C@@H](O)[C@@H]1N[C@H]1C=C(CO)[C@@H](O)[C@H](O)[C@H]1O (some centres not stated)	no
CO[C@H]1O[C@@H]2O[C@@]3(C)CC[C@H]4[C@H](C)CC[C@@H]([C@H]1C)[C@@]24OO3	no
CC(C)[C@H](CO)Nc1nc(Nc2ccc(C(=O)O)c(Cl)c2)c2ncn(C(C)C)c2n1	no
Clc1ccc(-c2nc3sccn3c2/C=N/OCc2ccc(Cl)c(Cl)c2)cc1	no
CC(Oc1ccc(O)cc1)(P(=O)(O)O)P(=O)(O)O	no
CC(C)NCC(O)c1ccc(NS(C)(=O)=O)cc1 (configuration not stated)	no

Ask: Name the outcome recorded for Oc1cc(O)cc(/C=C/c2ccc(O)c(O)c2)c1 in the assay.
Result: yes

Ask: Name the outcome recorded for Nc1nc(N)c2nc(CNc3ccc(C(=O)NC(CCC(=O)O)C(=O)O)cc3)cnc2n1 (configuration not stated) in the assay.
Result: no

Ask: Name the outcome recorded for CCOc1ccc(Nc2nc(-c3c(C)nc4ccccn34)cs2)cc1 in the assay.
Result: yes

Ask: Name the outcome recorded for O=C(c1ccc(OCCN2CCCCC2)cc1)c1c(-c2ccc(O)cc2)sc2cc(O)ccc12 in the assay.
Result: no

Ask: Name the outcome recorded for Cc1[nH]c(/C=C2\C(=O)Nc3ccc(S(=O)(=O)Cc4c(Cl)cccc4Cl)cc32)c(C)c1C(=O)N1CCC[C@@H]1CN1CCCC1 in the assay.
Result: yes

Ask: Name the outcome recorded for O=c1[nH]nc(Sc2ncc([N+](=O)[O-])s2)n1-c1ccc2c(c1)OCCO2 in the assay.
Result: yes

Ask: Name the outcome recorded for CCN(c1ccccc1)c1cc(NC)[n+](C)c(C)n1 in the assay.
Result: no

Ask: Name the outcome recorded for O=C(O)c1ccc2cc(-c3ccc(O)c(C45CC6CC(CC(C6)C4)C5)c3)ccc2c1 in the assay.
Result: yes

Ask: Name the outcome recorded for NCCCCNCCCN in the assay.
Result: no

Ask: Name the outcome recorded for CN[C@@H]1[C@H](O[C@H]2[C@H](O[C@@H]3[C@@H](O)[C@H](O)[C@@H](N=C(N)N)[C@H](O)[C@H]3N=C(N)N)O[C@@H](C)[C@]2(O)C=O)O[C@@H](CO)[C@H](O)[C@H]1O in the assay.
Result: no

----------
assay: differential killing of epithelial or mesenchymal cells, primary screen, imaging, PC-3E GFP, TEM4-18 mCherry, co-culture (AID 1345086); conditions: imaging cell counts, measured here: epithelial PC-3E GFP cell survival, at 1 µM;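 further: cells exposed to compound for 72 h before imaging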
value_kind: normalised cell number
Enter a number only.

Example results:
compound	normalised cell number
COc1nc(N)nc2c1ncn2C1O[C@H](CO)[C@@H](O)[C@@H]1O (stereo partly drawn)	0.92
CNC1C(O[C@@H]2OC(CO)C(N)[C@H](O)C2O)OC2CC(N)[C@@H](OC3C(N)C[C@@H](N)C(O)[C@H]3O)OC2C1O (stereo partly drawn)	0.92
OC[C@@H](O)[C@H](O)[C@@H](O)[C@H](O)CO	0.97

Ask: Need normalised cell number, item CC(C)(CO)[C@@H](O)C(=O)NCCC(=O)O
Result: 0.63

Ask: Need normalised cell number, item C/C=C\C(=O)O[C@@H]1[C@H](O)[C@@H](O)CO[C@@H]1C
Result: 0.99

Ask: Need normalised cell number, item CC(CCC(=O)O)[C@H]1CCC2C3CC[C@@H]4C[C@H](O)CC[C@]4(C)C3C[C@H](O)[C@@]21C (stereo partly drawn)
Result: 0.86

Ask: Need normalised cell number, item C[C@]12CCC3c4ccc(O)cc4CCC3C1CC[C@@H]2O (stereo partly drawn)
Result: 1.32

Ask: Need normalised cell number, item CO[C@@H]1[C@@H](O[C@@H]2O[C@H](C)[C@@H](O[C@H]3C[C@@](C)(O)[C@H](O)[C@H](C)O3)[C@H](N(C)C)[C@H]2O)[C@@H](CC=O)C[C@@H](C)[C@@H](O[C@H]2CC[C@H](N(C)C)[C@@H](C)O2)/C=C/C=C/C[C@H](C)OC(=O)C[C@H]1O
Result: 1.23
